# System: up to 32 different microorganisms
# Test method notes: in vitro antibacterial activity (MIC), agar dilution on Brain Heart Infusion (BHI) agar with Steers replicator
# Format: cell-based
# Condition info: organism code EE; unit assumed
Experimental readout: MIC (µg/mL)

| Molecule | Readout unit | Observed measurement |
| --- | --- | --- |
| CC[C@H]1OC(=O)[C@H](C)C(=O)[C@H](C)[C@@H](O[C@@H]2O[C@H](C)C[C@H](N(C)C)[C@H]2O)[C@@](C)(OCC=NOCc2ccc([N+](=O)[O-])cc2)C[C@@H](C)C(=O)[C@H](C)[C@H]2NC(=O)O[C@@]21C [Example 230] | µg/mL | 0.1 |
| CCC(=O)OC1C(OC2C(C)C(=O)C(C)C(=O)OC(CC)C3(C)OC(=O)NC3C(C)C(=O)C(C)CC2(C)OCC=Cc2cnc3ccccc3c2)OC(C)CC1N(C)C (centres unmarked) [Example 244] | µg/mL | 0.2 |
| CCC1OC(=O)C(C)C(=O)C(C)C(OC2OC(C)CC(N(C)C)C2O)C(C)(OCC=Cc2cnc3ccc(C(=O)OC)cc3c2)CC(C)C(=O)C(C)C2NC(=O)OC12C (centres unmarked) [Example 216] | µg/mL | 0.2 |
| CC[C@H]1OC(=O)[C@H](C)C(=O)[C@H](C)[C@@H](O[C@@H]2O[C@H](C)C[C@H](N(C)C)[C@H]2O)[C@@](C)(OCC=Cc2cnc3ccc(C(=O)O)cc3c2)C[C@@H](C)C(=O)[C@H](C)[C@H]2NC(=O)O[C@@]21C [Example 214] | µg/mL | 12.5 |
| CCC1OC(=O)C(C)C(=O)C(C)C(OC2OC(C)CC(N(C)C)C2O)C(C)(OCC=Cc2ccc(C)c3ccccc23)CC(C)C(=O)C(C)C2NC(=O)OC12C (centres unmarked) [Example 276] | µg/mL | 0.78 |

###

# System: up to 32 different microorganisms
# Test method notes: in vitro antibacterial activity (MIC), agar dilution on Brain Heart Infusion (BHI) agar with Steers replicator
# Type: cell-based
# Condition info: organism code HH; unit assumed
# Method: Representative compounds of the present invention were assayed in vitro for antibacterial activity as follows: Twelve petri dishes containing successive aqueous dilutions of the test compound mixed with 10 mL of sterilized Brain Heart Infusion (BHI) agar (Difco 0148-01-5) were prepared. Each plate was inoculated with 1:100 (or 1:10 for slow-growing strains, such as Micrococcus and Streptococcus) dilutions of up to 32 different microorganisms, using a Steers replicator block. […]
Reported MIC values follow for various compounds

| Compound | Readout unit | MIC |
| --- | --- | --- |
| CC[C@H]1OC(=O)[C@H](C)C(=O)[C@H](C)[C@@H](O[C@@H]2O[C@H](C)C[C@H](N(C)C)[C@H]2O)[C@@](C)(OCC(=O)c2ccc(F)cc2)C[C@@H](C)C(=O)[C@H](C)[C@H]2NC(=O)O[C@@]21C | µg/mL | 3.1 |
| CC[C@H]1OC(=O)[C@H](C)C(=O)[C@H](C)[C@@H](O[C@@H]2O[C@H](C)C[C@H](N(C)C)[C@H]2O)[C@@](C)(OCC=O)C[C@@H](C)C(=O)[C@H](C)[C@H]2NC(=O)O[C@@]21C | µg/mL | 0.2 |
| CC[C@H]1OC(=O)[C@H](C)C(=O)[C@H](C)[C@@H](O[C@@H]2O[C@H](C)C[C@H](N(C)C)[C@H]2O)[C@@](C)(OCC#Cc2ccc3nc(C)ccc3c2)C[C@@H](C)C(=O)[C@H](C)[C@H]2NC(=O)O[C@@]21C | µg/mL | 0.1 |
| CCC1OC(=O)C(C)C(=O)C(C)C(OC2OC(C)CC(N(C)C)C2O)C(C)(OCC(O)c2ccccc2)CC(C)C(=O)C(C)C2NC(=O)OC12C (single isomer, unassigned) [Example 261A] | µg/mL | 6.2 |
